Target: APC11/APC2 (Homo sapiens, UniProt Q9NYG5+Q9UJX6)
Sequence (Q9NYG5 whole entry): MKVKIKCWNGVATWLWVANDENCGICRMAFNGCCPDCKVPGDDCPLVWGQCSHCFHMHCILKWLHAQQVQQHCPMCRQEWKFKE
Sequence (Q9UJX6 whole entry): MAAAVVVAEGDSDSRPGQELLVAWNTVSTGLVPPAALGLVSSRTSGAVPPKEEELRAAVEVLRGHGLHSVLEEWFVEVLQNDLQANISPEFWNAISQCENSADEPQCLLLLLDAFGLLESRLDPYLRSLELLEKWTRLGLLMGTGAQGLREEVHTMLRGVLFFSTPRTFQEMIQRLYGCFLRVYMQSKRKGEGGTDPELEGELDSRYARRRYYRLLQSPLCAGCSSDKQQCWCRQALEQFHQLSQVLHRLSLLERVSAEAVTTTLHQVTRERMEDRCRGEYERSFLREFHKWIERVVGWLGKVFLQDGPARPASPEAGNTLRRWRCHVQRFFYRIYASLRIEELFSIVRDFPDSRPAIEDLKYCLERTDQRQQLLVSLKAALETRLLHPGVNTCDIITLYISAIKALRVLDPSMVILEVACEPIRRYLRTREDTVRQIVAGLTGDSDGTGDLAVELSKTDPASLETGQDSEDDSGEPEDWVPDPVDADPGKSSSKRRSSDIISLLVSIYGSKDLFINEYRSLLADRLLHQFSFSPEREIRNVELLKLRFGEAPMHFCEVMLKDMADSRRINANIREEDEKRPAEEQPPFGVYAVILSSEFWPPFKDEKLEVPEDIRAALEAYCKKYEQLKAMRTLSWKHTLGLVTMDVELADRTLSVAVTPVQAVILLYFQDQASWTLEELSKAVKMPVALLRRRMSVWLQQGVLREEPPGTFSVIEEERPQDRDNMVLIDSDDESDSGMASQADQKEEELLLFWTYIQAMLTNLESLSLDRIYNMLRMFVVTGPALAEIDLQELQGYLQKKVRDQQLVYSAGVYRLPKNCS
Assay: APC-11/APC-2 ligase assay (APC auto ubiquitination)
Details: APC assay
pIC50: −log10 of the molar value.
Property: pIC50

• O=S(=O)(Nc1ncccc1OCc1ccccc1)c1ccc(Cl)c2nonc12 = ≤ 4.70
• O=S(=O)(Nc1cccc(F)c1F)c1ccc(Sc2cccc3cccnc23)c2nonc12 = 4.70 to 6.00

Note down pIC50 recorded for `N#Cc1cccnc1N1CCN(S(=O)(=O)c2c(Sc3cccc4cccnc34)ccc3nonc23)CC1` 4.70 to 6.00

Note down pIC50 recorded for `O=[N+]([O-])c1ccc(N2CCN(c3cnccn3)CC2)c2nonc12` 4.70 to 6.00

###

Biological target: APC11/APC2 (Homo sapiens, UniProt Q9NYG5+Q9UJX6)
Assay: APC-11/APC-2 ligase assay (APC auto ubiquitination)
Settings: APC assay
pIC50: −log10 of the molar value.
# pIC50 per record follows

Answered examples (4):
- Fc1cc2nonc2c(N2CCOCC2)c1F [compound 405]: ≤ 4.70
- O=[N+]([O-])c1ccc(N2CCN(c3ncccc3C(F)(F)F)CC2)c2nonc12 [compound 148]: 4.70 to 6.00
- CC(C)(C)c1ccc(-c2ccc([N+](=O)[O-])c3nonc23)cc1 [compound 313]: 4.70 to 6.00
- Cc1ccc(-c2ccc([N+](=O)[O-])c3nonc23)cc1 [compound 468]: 4.70 to 6.00

Quote pIC50 with test system APC11/APC2 (Homo sapiens, UniProt Q9NYG5+Q9UJX6) for CC(=O)c1cccc(-c2ccc([N+](=O)[O-])c3nonc23)c1 [compound 443] 4.70 to 6.00

###

Target: APC11/APC2 (Homo sapiens, UniProt Q9NYG5+Q9UJX6)
Test: APC-11/APC-2 ligase assay (APC auto ubiquitination)
Conditions: APC assay
Property: IC50

Answered examples (3):
* O=[N+]([O-])c1cc(-c2cccc3cccnc23)c2nonc2c1 | ≥ 20 µM
* Nc1ccc(Nc2ccc3[nH]ncc3c2)c2nonc12 | ≥ 20 µM
* Cc1ccc(N2CCN(c3ccc([N+](=O)[O-])c4nonc34)CC2)cc1C | 1 to 20 µM

Note down IC50 recorded for `COc1cc(Nc2ccc3nonc3c2S(=O)(=O)Nc2cc(OC)c(Cl)cc2OC)c(OC)cc1Cl` ≥ 20 µM

Note down IC50 recorded for `O=[N+]([O-])c1ccc(N2CCN(c3ncccn3)CC2)c2nonc12` 1 to 20 µM

Note down IC50 recorded for `O=S(=O)(c1c(N2CCOCC2)cc(Cl)c2nonc12)N1CCOCC1` ≥ 20 µM

Note down IC50 recorded for `O=[N+]([O-])c1ccc(-c2ccccc2F)c2nonc12` 1 to 20 µM

Note down IC50 recorded for `O=S(=O)(Nc1ccccc1Br)c1ccc(Cl)c2nonc12` ≥ 20 µM

Note down IC50 recorded for `N#CC1(c2ccccc2)CCN(c2ccc([N+](=O)[O-])c3nonc23)CC1` 1 to 20 µM

###

Tested on: U2OS cells
Experiment: Cell proliferation PAD assay, U2OS
Type: cell-based
Settings: Homo sapiens, 6pt, 48 hours
Property: IC50

Answered examples (3):
- O=S(=O)(Nc1ccc2cn[nH]c2c1)c1ccc(Cl)c2nonc12: 1000 to 20000 nM
- O=S(=O)(c1c(Cl)ccc2nonc12)N1CCN(c2ncc(C(F)(F)F)cc2Cl)CC1: < 1000 nM
- O=S(=O)(Nc1ccc2[nH]ncc2c1)c1ccc(Cl)c2nonc12: 1000 to 20000 nM

Note down IC50 recorded for `COC(=O)c1ccc(NS(=O)(=O)c2ccc(F)c3nonc23)cc1` < 1000 nM

Note down IC50 recorded for `O=S(=O)(c1ccc(Cl)c2nonc12)N1CCN(c2ncc(C(F)(F)F)cc2Cl)CC1` < 1000 nM

Note down IC50 recorded for `O=S(=O)(Oc1ccc(N2CCN(S(=O)(=O)c3ccc(Cl)c4nonc34)CC2)cc1)c1ccc(Cl)c2nonc12` < 1000 nM

Note down IC50 recorded for `Cc1cccc(N2CCN(S(=O)(=O)c3ccc(Cl)c4nonc34)CC2)n1` < 1000 nM

Note down IC50 recorded for `O=S(=O)(Nc1cccc2cccnc12)c1cccc2nonc12` < 1000 nM

Note down IC50 recorded for CC1CN(S(=O)(=O)c2c(Cl)ccc3nonc23)CC(C)O1 (centres unmarked) < 1000 nM

Note down IC50 recorded for `CC(=O)N1CCN(S(=O)(=O)c2c(Cl)ccc3nonc23)CC1` < 1000 nM

Note down IC50 recorded for `O=S(=O)(c1ccc(F)c2nonc12)N1CCN(c2ncc(C(F)(F)F)cc2Cl)CC1` ≥ 20000 nM

Note down IC50 recorded for `COC(=O)c1ccc(NS(=O)(=O)c2c(Cl)ccc3nonc23)cc1` < 1000 nM

Note down IC50 recorded for `O=S(=O)(Nc1ccc2cn[nH]c2c1)c1c(Cl)ccc2nonc12` < 1000 nM

Note down IC50 recorded for `O=c1[nH]c2ccccc2n1C1CCN(S(=O)(=O)c2ccc(Cl)c3nonc23)CC1` < 1000 nM

Note down IC50 recorded for `Cc1cc(C)cc(-c2ccc([N+](=O)[O-])c3nonc23)c1` < 1000 nM

Note down IC50 recorded for `Cc1cccc(N2CCN(S(=O)(=O)c3c(Cl)ccc4nonc34)CC2)n1` < 1000 nM

Note down IC50 recorded for `O=[N+]([O-])c1ccc(SCCO)c2nonc12` < 1000 nM
